tested on: 171881-019-R-J1-PDC tumor spheroid viability; assay: Anticancer human tumor 171881-019-R-J1-PDC patient-derived invasive breast carcinoma cell line growth inhibition [PI3K]; conditions: second compound 1 µM; first compound 0.1 µM; spheroids with HUVEC and MSC; active = viability on the fitted dose curve at most 10% of control; inactive = the rest;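 note: spheroids exposed to compound for 7 days before viability read; 100% = DMSO vehicle-treated spheroids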
# valid calls are true (1) = active, false (0) = inactive; nothing else

Problem: // param item: C=CC(=O)N1CCN(c2nc(=O)n(-c3c(C)ccnc3C(C)C)c3nc(-c4c(O)cccc4F)c(F)cc23)C(C)C1 (stereo not given) + COc1c(OCCCN2CCOCC2)ccc2c3n(c(=NC(=O)c4cnc(N)nc4)nc12)CCN3 ; yields the recorded call
Solution: true (1)

Problem: // param item: Cn1ncnc1[C@H]1c2n[nH]c(=O)c3cc(F)cc(c23)N[C@@H]1c1ccc(F)cc1 + CC(Nc1ncnc2nc[nH]c12)c1cc2cccc(Cl)c2c(=O)n1-c1ccccc1 ; yields the recorded call
Solution: false (0)

Problem: // param item: CC1(C)CCC(Nc2ncc(C(F)(F)F)c(-c3c[nH]c4c(P(C)(C)=O)c(C#N)ccc34)n2)CN1 (stereo not given) + COc1c(OCCCN2CCOCC2)ccc2c3n(c(=NC(=O)c4cnc(N)nc4)nc12)CCN3 ; yields the recorded call
Solution: true (1)

Problem: // param item: CCN1CCN(Cc2ccc(Nc3ncc(F)c(-c4cc(F)c5nc(C)n(C(C)C)c5c4)n3)nc2)CC1 + CC(Nc1ncnc2nc[nH]c12)c1cc2cccc(Cl)c2c(=O)n1-c1ccccc1 ; yields the recorded call
Solution: false (0)

Problem: // param item: C#Cc1c(F)ccc2cc(O)cc(-c3ncc4c(N5CC6CCC(C5)N6)nc(OCC56CCCN5CC(F)C6)nc4c3F)c12 (stereo not given) + CC(Nc1ncnc2nc[nH]c12)c1cc2cccc(Cl)c2c(=O)n1-c1ccccc1 ; yields the recorded call
Solution: false (0)

From: PubChem BioAssay AID1963986
